Target: PRMT5 (Homo sapiens, UniProt O14744)
Construct: purchased Viva (custom protein)
Sequence (O14744 whole entry): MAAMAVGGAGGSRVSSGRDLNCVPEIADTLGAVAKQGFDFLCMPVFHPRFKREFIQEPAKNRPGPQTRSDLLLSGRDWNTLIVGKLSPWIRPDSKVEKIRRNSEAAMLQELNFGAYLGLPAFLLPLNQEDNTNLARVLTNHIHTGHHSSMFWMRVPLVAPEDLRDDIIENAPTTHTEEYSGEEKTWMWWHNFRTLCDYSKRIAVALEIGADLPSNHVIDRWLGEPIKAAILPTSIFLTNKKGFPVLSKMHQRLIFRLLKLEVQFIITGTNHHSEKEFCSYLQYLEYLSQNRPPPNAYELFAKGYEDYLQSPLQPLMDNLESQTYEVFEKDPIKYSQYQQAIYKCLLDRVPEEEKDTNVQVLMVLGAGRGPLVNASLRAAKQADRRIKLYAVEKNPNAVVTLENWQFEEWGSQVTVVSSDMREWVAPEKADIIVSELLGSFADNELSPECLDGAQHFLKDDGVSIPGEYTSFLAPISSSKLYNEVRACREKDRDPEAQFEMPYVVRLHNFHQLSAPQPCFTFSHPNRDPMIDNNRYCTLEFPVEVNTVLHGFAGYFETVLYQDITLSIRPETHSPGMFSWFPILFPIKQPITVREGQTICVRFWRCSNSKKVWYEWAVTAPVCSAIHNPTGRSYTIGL
Sequence (Q9BQA1 whole entry partner): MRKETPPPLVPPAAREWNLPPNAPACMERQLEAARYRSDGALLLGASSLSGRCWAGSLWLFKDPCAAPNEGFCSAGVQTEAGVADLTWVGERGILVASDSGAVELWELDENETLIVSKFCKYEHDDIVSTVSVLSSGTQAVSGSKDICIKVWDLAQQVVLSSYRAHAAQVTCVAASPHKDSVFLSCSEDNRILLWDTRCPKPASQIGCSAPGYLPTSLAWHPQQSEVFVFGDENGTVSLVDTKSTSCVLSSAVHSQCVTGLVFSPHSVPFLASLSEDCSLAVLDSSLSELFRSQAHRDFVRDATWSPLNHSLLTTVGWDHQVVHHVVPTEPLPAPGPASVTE
Assay: PRMT5 biochemical IC50 assay with SAM as cofactor
Conditions: PRMT5, SAM as cofactor; read-out: SAM IC50
pIC50: −log10 of the molar value.
Assignment: determine reported pIC50 for the given compounds.

QUERY: Entry under review: CC1(C)CCCC2CN(C(=O)C(=O)Nc3cncc(C(N)=O)c3)CCC21 (racemic) [Compound 141] . Reported pIC50?
RESULT: 6.30 to 7.30

QUERY: Entry under review: Cc1cc(NC(=O)C(=O)N2C[C@@H](C)CC[C@@H]2c2ccc3nn(C)cc3c2)cnc1N (single isomer, unassigned) [Compound 1040] . Reported pIC50?
RESULT: < 6.30

QUERY: Entry under review: Cc1cc(NC(=O)C(=O)N2C[C@H](C)CC[C@H]2c2cccnc2)cnc1N (single isomer, unassigned) [Compound 301] . Reported pIC50?
RESULT: 6.30 to 7.30

QUERY: Entry under review: C[C@@H]1CC[C@@H](c2ccc(N)cc2)N(C(=O)C(=O)Nc2cncc(C(N)=O)c2)C1 (single isomer, unassigned) [Compound 381] . Reported pIC50?
RESULT: 6.30 to 7.30

QUERY: Entry under review: C[C@@H]1CC[C@@H](c2ccc(CN3CCOCC3)cc2)N(C(=O)C(=O)Nc2cncc(C(N)=O)c2)C1 (racemic) [Compound 213] . Reported pIC50?
RESULT: 6.30 to 7.30

QUERY: Entry under review: Cc1cc(NC(=O)C(=O)N2C[C@H]3CC[C@H](C3)[C@H]2c2ccccc2)cnc1N (single isomer, unassigned) [Compound 65] . Reported pIC50?
RESULT: 6.30 to 7.30
